target: Bem1-2, P29366; experiment: SPOT array; settings: median of control spots 4347
Sequence (P29366 139-227): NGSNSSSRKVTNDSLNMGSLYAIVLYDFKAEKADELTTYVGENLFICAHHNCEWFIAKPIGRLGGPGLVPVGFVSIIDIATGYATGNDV
Property measured: SPOT intensity

>  <Binder>
SAPDIPPRSPNRNAH

>  <Property measured>
SPOT intensity

>  <Value reported>
0

$$$$
>  <Binder>
SKAKRPKFLLDLQIK

>  <Property measured>
SPOT intensity

>  <Value reported>
0

$$$$
>  <Binder>
NLDRSKISLPDFDDE

>  <Property measured>
SPOT intensity

>  <Value reported>
0

$$$$
>  <Binder>
NNFYRPLLRSVLVLL

>  <Property measured>
SPOT intensity

>  <Value reported>
3

$$$$
>  <Binder>
PALPSLPPPPLLNVD

>  <Property measured>
SPOT intensity

>  <Value reported>
0

$$$$
>  <Binder>
ALRRRLPVTRSKINW

>  <Property measured>
SPOT intensity

>  <Value reported>
7

$$$$
>  <Binder>
VFQFQMPTTPISTKM

>  <Property measured>
SPOT intensity

>  <Value reported>
5

$$$$
